- Study System: T1, CD73 on A549 cells (UniProt P21589 27-549, limits assumed)
- T1 sequence (looked up): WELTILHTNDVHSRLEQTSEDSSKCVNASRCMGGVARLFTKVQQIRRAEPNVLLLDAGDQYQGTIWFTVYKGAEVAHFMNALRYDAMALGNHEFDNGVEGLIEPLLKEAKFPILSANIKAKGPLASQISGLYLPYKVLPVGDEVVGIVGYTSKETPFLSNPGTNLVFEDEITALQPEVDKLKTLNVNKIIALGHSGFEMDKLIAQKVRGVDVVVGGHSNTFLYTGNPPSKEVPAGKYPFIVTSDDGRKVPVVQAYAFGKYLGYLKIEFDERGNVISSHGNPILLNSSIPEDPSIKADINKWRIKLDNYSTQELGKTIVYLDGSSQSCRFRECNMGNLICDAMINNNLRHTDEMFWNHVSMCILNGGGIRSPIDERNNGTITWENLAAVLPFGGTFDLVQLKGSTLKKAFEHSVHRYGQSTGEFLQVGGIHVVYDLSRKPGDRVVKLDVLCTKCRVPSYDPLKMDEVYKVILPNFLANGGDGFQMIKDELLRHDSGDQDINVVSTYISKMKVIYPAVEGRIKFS
- Experimental Protocol: cell-based or functional assay
binders and their reported EC50 (µg/mL), Cell level (A549 cells), inhibition of the enzyme activity of CD73
Numeric answer only, unit µg/mL assumed.

Examples with answers:
Binder	Experimental Result
anti-CD73 monoclonal antibody 81-2-2 (antibody, V domains shown, Mouse hybridoma antibody of the IgG type, purified from ascitic fluid) VH: QVQLQQPGAELVKPGASVKLSCKASGYTFTSYWMHWVKQRPGQGLEWIGEINPSNGRTNYNEKFKSKATLTVDKSSSTAYMQLSSLTSEDSAVYYCARRGTSGNFFDYWGQGTTLTVSS VL: DIKMTQSPSSMYASLGERVTITCKASQDINTYLSWFQQKPGKSPKTLIYRANRLVDGVPSRFSGSGSGQDYSLTISSLEYEDMGIYYCLQFDEFPYTFGGGTKLEIK	0.213
anti-CD73 monoclonal antibody 06-6 (antibody, V domains shown, Mouse hybridoma antibody of the IgG type, purified from ascitic fluid) VH: QVQLQQSGPELVKPGASVRISCKASGYTFADYFMHWVRLRPGQGLEWIGWIYPGYVNIKYNEKFKGKATLTADKSSSTAYMQLSSLTSEDSAVYFCARGEDYDSAMDYWGQGTSVTVSS VL: GVVMTQTPLSLPVSLGDQASISCRSSQSLVHSNGNTYLHWYLQKPGQSPKLLIYKVSNRFSGVPDRFSGSGSGTDFTLKISRVEAEDLGVYFCSQSTHVPPWTFGGGTKLEIK	0.147
anti-CD73 monoclonal antibody F2-2 (antibody, V domains shown, Mouse hybridoma antibody of the IgG type, purified from ascitic fluid) VH: VQLQESGPGLVKPSQSLSLTCTVTGHSITSDYVWNWIRQFPGNKLEWMGYISYSGIIKYNPSLKSRISITRDTSKNQFFLQLNSVTTEDTATYYCAGDEYFWFAYWGQGTTVTVSS VL: DIQMTQSPSSMYASLGERVTITCKASQDIKSYLSWYQQKPWKSPKTLIYYATNLADGVPSRFSGSGSGQDYSLTISSLESDDTATYYCLQHGESPYTFGGGTKLEIK	0.0397

Please report EC50 (µg/mL), Cell level (A549 cells), inhibition of the enzyme activity of CD73 for the following binder: anti-CD73 monoclonal antibody E1-B6 (antibody, V domains shown, Mouse hybridoma antibody of the IgG type, purified from ascitic fluid) VH: VKLQESGAELARPGASVKLSCKASGYTFTDYYINWVKQRTGQGLEWIGETYPGNGNTYYHEKFKGKATLTADRSSSTAYMQLSSLTSEDSAVYFCARGTYYGSSEYFDYWGQGTTVTVSS VL: DIVMTQSPKFMSTSVGDRVSITCKASQNVGTAVAWYQQRPGQSPKLLIYSASNRNTGVPDRFTGSGSGTDFTLTISNMQSEDLADYFCQQYSSYIFTFGSGTKLEIN
0.182
